Entries with their measured IC50, system Matrix metalloproteinase-9 (Homo sapiens):
// note: answer is a bare numeric in nM

• COc1ccc(S(=O)(=O)N(Cc2ccccc2)c2c(OCC(=O)NO)cccc2C(=O)NO)cc1 = 2
• COc1ccc(S(=O)(=O)N(Cc2ccccc2)c2c(C(=O)NO)cccc2[N+](=O)[O-])cc1 = 13

Lookup: Look up and report IC50, with Matrix metalloproteinase-9 (Homo sapiens) as system, for COc1ccc(S(=O)(=O)N(Cc2ccccc2)c2c(OC(C)(C)C(=O)NO)cccc2C(=O)NO)cc1
Sequence (P14780 whole entry): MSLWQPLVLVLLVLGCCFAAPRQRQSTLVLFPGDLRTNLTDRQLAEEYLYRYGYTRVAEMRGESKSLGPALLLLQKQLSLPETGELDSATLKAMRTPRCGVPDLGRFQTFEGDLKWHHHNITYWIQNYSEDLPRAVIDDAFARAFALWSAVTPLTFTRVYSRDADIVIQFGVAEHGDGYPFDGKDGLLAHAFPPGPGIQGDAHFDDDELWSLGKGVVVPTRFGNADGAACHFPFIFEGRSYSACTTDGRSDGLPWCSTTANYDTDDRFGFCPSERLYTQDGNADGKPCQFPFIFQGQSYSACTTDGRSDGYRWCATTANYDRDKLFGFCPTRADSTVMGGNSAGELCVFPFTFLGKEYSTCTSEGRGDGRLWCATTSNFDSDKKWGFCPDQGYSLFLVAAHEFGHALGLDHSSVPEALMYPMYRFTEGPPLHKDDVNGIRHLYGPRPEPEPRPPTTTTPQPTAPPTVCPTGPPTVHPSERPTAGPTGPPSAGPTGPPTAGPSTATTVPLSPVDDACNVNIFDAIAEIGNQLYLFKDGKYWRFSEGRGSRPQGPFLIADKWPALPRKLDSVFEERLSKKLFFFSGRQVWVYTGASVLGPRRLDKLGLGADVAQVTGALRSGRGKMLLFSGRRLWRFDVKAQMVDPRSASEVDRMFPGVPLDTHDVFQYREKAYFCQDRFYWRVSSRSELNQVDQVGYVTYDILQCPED
Found: 4

Lookup: Look up and report IC50, with Matrix metalloproteinase-9 (Homo sapiens) as system, for COC(=O)c1cccc(C(=O)NO)c1N(Cc1cccnc1)S(=O)(=O)c1ccc(OC)cc1
Found: 6
